- assayInfo: inhibition of endothelial tube formation, primary screen, imaging, VEGF stimulated, CD31 staining, tube area, NPC library (AID 1117340)
- assayConditions: VEGF-stimulated ADSC/ECFC co-culture, at 10 µM, stronger effect = higher value
Here, each record is paired with measured tube area decrease data.
experimentalEndpoint: tube area decrease (%)

molecule	unitsSymbol	reading
CN1CCCN=C1/C=C/c1cccs1	%	-9.9
CCCCCCCCCCOc1cc2c(=O)c(C(=O)OCC)c[nH]c2cc1OCC	%	-2
Cc1ccc(C(=O)c2cc(O)c(O)c([N+](=O)[O-])c2)cc1	%	39.4
CC(CN(C)C)C(C)(O)Cc1ccc(Cl)cc1 (centres undefined)	%	7.9
Cc1cc(C)c(/C=C2\C(=O)Nc3ccccc32)[nH]1	%	99.7
CS(=O)(=O)CCNCc1ccc(-c2ccc3ncnc(Nc4ccc(OCc5cccc(F)c5)c(Cl)c4)c3c2)o1	%	110
COc1ccccc1Oc1c(NS(=O)(=O)c2ccc(C(C)(C)C)cc2)nc(-c2ncccn2)nc1OCCO	%	4.9
Nc1ncn([C@H]2C[C@H](O)[C@@H](CO)O2)c(=O)n1	%	58.1
O=C(O)c1nc(=O)[nH]c(=O)[nH]1	%	-8.3
C[N+](C)(C)CCOC(=O)CCC(=O)OCC[N+](C)(C)C	%	-17.3
Nc1cc(C(Cl)=C(Cl)Cl)c(S(N)(=O)=O)cc1S(N)(=O)=O	%	7
CCCOc1cc(N)ccc1C(=O)OCCN(CC)CC	%	-15.3
COc1ccc(-c2cc(=S)ss2)cc1	%	-0.7
CC(=O)c1ccc2c(c1)N(CCCN(C)C)c1ccccc1S2	%	12.5
Cc1ccc(/C(=C\CN2CCCC2)c2ccccn2)cc1	%	-2.9
CC(C)OC(=O)c1cc2c(OCC(O)CNC(C)(C)C)cccc2[nH]1 (centres undefined)	%	1.9
O=C1c2ccccc2S(=O)(=O)N1CCCCN1CCN(c2ncccn2)CC1	%	4.9
CN(C/C=C/c1ccccc1)Cc1cccc2ccccc12	%	-3.5
Cc1cc(C(C#N)c2ccc(Cl)cc2)c(Cl)cc1NC(=O)c1cc(I)cc(I)c1O (centres undefined)	%	111
O=C(N/N=C/c1ccc([N+](=O)[O-])o1)c1ccc(O)cc1	%	26.5
COc1ccc2[nH]c(S(=O)Cc3ncc(C)c(OC)c3C)nc2n1 (centres undefined)	%	14.1
CC(C)(C)CC(C)(C)c1ccc(OCCOCC[N+](C)(C)Cc2ccccc2)cc1	%	110
CCN[C@H]1C[C@H](C)S(=O)(=O)c2sc(S(N)(=O)=O)cc21	%	-2.8
CCCCCCCCCCCCCCCC(=O)O	%	-25.4

###

- System: F380Y/beta2Delta
- assayInfo: modulators of BK channel variants, profiling panel, selectivity assay, cell-based, U2OS BacMam, thallium flux, beta subunits (AID 1259406);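 further: initial slope of Thallos dye fluorescence rise after thallium is added; log ratio against the mean of 0.3% DMSO vehicle wells on the same plate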
- assayConditions: at 30 µM
log fold change Tl+ flux overview

compound	log fold change Tl+ flux
CC1(C)S[C@@H]2[C@H](NC(=O)[C@H](N)c3ccc(O)cc3)C(=O)N2[C@H]1C(=O)O	-0.0816
CCCCC(=O)O[C@H]1CC[C@H]2[C@@H]3CCc4cc(O)ccc4[C@H]3CC[C@]12C	0.0462
CC(C(=O)O)c1ccc(-c2ccccc2)c(F)c1 (stereo unspecified)	-0.00435
CC(CCc1ccccc1)NCC(O)c1ccc(O)c(C(N)=O)c1 (stereo unspecified)	0.0329
COc1c2occc2cc2ccc(=O)oc12	-0.0131
O=C(CCCN1CCC(O)(c2ccc(Cl)cc2)CC1)c1ccc(F)cc1	0.0376
CCCC1O[C@@H]2C[C@H]3[C@@H]4CCC5=CC(=O)C=C[C@]5(C)[C@H]4[C@@H](O)C[C@]3(C)[C@]2(C(=O)CO)O1 (stereo partly specified)	0.159
CC(C)OC(=O)C(C)(C)Oc1ccc(C(=O)c2ccc(Cl)cc2)cc1	-0.0352
Cc1occc(=O)c1O	0.00122
CCCCC(=O)N(Cc1ccc(-c2ccccc2-c2nn[nH]n2)cc1)[C@H](C(=O)O)C(C)C	0.0113
O=C(Nc1ccc(Oc2ccc(OC(F)(F)F)cc2)cc1)c1ccco1	-0.597
Cn1cc[nH]c1=S	-0.00456
CC(C)n1c(/C=C/[C@@H](O)C[C@@H](O)CC(=O)O)c(-c2ccc(F)cc2)c2ccccc21	0.0465
COc1ccc(-c2oc3c(CC=C(C)C)c(O[C@@H]4O[C@H](CO)[C@@H](O)[C@H](O)[C@H]4O)cc(O)c3c(=O)c2O[C@@H]2O[C@@H](C)[C@H](O)[C@@H](O)[C@H]2O)cc1	-0.0493
CN(C)C(=O)C(CCN1CCC(O)(c2ccc(Cl)cc2)CC1)(c1ccccc1)c1ccccc1	0.103
COC(=O)[C@H](c1ccccc1Cl)N1CCc2sccc2C1	-0.0129
CN(C)c1nc(N(C)C)nc(N(C)C)n1	0.00703
CC(C)(C(=O)O)c1ccc(C(O)CCCN2CCC(C(O)(c3ccccc3)c3ccccc3)CC2)cc1 (stereo unspecified)	-0.00892
C[C@H](CCC(=O)O)[C@H]1CC[C@H]2[C@@H]3[C@@H](O)C[C@@H]4C[C@H](O)CC[C@]4(C)[C@H]3CC[C@]12C	0.0428
Cc1cccc(C)c1NC(=O)C1CCCCN1C (stereo unspecified)	0.00729
Nc1ncnc2c1ncn2[C@@H]1O[C@H](CO)[C@@H](O)[C@@H]1O	0.00163

###

Listing of recorded score by entry.
- assayInfo: suppressors of polyQ aggregation in yeast, 75Q-TubU reporter (AID 1593)
- assayConditions: Yeast 75Q polyglutamine aggregation reporter
Peptide text beside a SMILES is read from it.
experimentalEndpoint: score

compound	reading
CC(C)NCC(O)COc1ccc(CC(N)=O)cc1 (stereo not drawn)	1.42
CCOC(=O)CCCCCCCCCCCCC1C=CCC1 (stereo not drawn)	-0.7
CC(C)NCC(O)COc1cccc2ccccc12 (stereo not drawn)	1.12
O=C1C=CC(=C(c2ccc(O)cc2)c2ccc(O)cc2)C=C1	1.1
CON	1.4
NC(=O)c1cccc(N)c1	1.17
COc1ccc(/C=C/c2cc(O)cc(O[C@@H]3O[C@H](CO)[C@@H](O)[C@H](O)[C@H]3O)c2)cc1O	1.27
CC(C)=CCC1=C(O)c2ccccc2C(=O)C1=O	0.21
COc1c2ccoc2cc2oc(=O)ccc12	1.02
COC(=O)C1=C(C)NC(C)=C(C(=O)OC)C1c1ccccc1[N+](=O)[O-]	0.82
Cc1ccc(/C(=C\CN2CCCC2)c2ccccn2)cc1	1.45
O=C(O)c1cc(O)ccc1O	0.92
c1coc(CNc2ncnc3nc[nH]c23)c1	1.14
O=C1c2ccc(O)c(O)c2C(=O)c2c(O)ccc(O)c21	1.47
Cc1cc(NS(=O)(=O)c2ccc(N)cc2)no1	1.35
Cc1cc(C(C)(C)CC(C)(C)C)ccc1OCCOCC[N+](C)(C)Cc1ccccc1	-0.1
CN1C(CC(=O)c2ccccc2)CCCC1CC(O)c1ccccc1 (stereo not drawn)	1.4
CCn1cc(C(=O)O)c(=O)c2ccc(C)nc21	0.74
COc1cc(Cc2cnc(N)nc2N)cc(OC)c1OC	1.11
COc1cc(C)c2c(=O)cc(-c3ccccc3)oc2c1	-1.86
CC(C(=O)O)c1cccc(C(=O)c2ccccc2)c1 (stereo not drawn)	1.03
CC(N)C(=O)NC(Cc1ccccc1)C(=O)O (stereo not drawn)	1.2
CC1CCCC(C)N1NC(=O)c1ccc(Cl)c(S(N)(=O)=O)c1 (stereo not drawn)	1.67
CN(N=O)C(=O)N[C@@H]1[C@@H](O)[C@H](O)[C@@H](CO)O[C@@H]1O	1.48
O=C(O)CN(CC(=O)O)Cc1cc2c(-c3ccccc3C(=O)O)c3cc(CN(CC(=O)O)CC(=O)O)c(=O)cc-3oc2cc1O	1.05
COc1ccc2c3c1O[C@H]1C[C@@H](O)C=C[C@@]31CCN(C)C2	1.34
CN[C@H](CC(=O)O)C(=O)O	1.4
CN(C)CCOC(c1ccccc1)c1ccccc1 (tested in a mixture with another compound)	1.21
CC[C@@H](CO)NCCN[C@@H](CC)CO	1.09
O=C(O)CCC(=O)OC[C@@H](NC(=O)C(Cl)Cl)[C@H](O)c1ccc([N+](=O)[O-])cc1	1.53
CNCCCN1c2ccccc2CCc2ccccc21	1.37
C[n+]1c2cc(N)ccc2cc2ccc(N)cc21	0.44
CC(=O)N=c1sc(S(N)(=O)=O)nn1C	0.84
CC(=O)NCCc1c[nH]c2ccc(O)cc12	1.5
O=C1CN(/N=C/c2ccc([N+](=O)[O-])o2)C(=O)N1	0.72
C[N+]1(C)CCCC(OC(=O)C(O)(c2ccccc2)c2ccccc2)C1 (stereo not drawn)	1.26
N=c1nc(N2CCCCC2)cc(N)n1O	1.58
C[N+](C)(C)CC(O)CC(=O)O (stereo not drawn)	1.34
CC1=C(/C=C/C(C)=C/C=C/C(C)=C/CO)C(C)(C)CCC1	-0.82
O=c1c(-c2ccc(O)cc2)coc2cc(O)ccc12	1
NCCCCC(N)C(=O)NC(Cc1ccc(O)cc1)C(=O)NC(CCCCN)C(=O)O (stereo not drawn) (H-Lys-Tyr-Lys-OH; configuration not given here)	3.85
CSCCC(NC=O)C(=O)NC(CC(C)C)C(=O)NC(Cc1ccccc1)C(=O)O (stereo not drawn)	1
CCCCN1CCCCC1C(=O)Nc1c(C)cccc1C (stereo not drawn)	1.42
CC(=O)N1CCN(c2ccc(OCC3CO[C@](Cn4ccnc4)(c4ccc(Cl)cc4Cl)O3)cc2)CC1 (stereo partly drawn)	0.15
COc1ccc2cc([C@H](C)C(=O)O)ccc2c1	0.32
CC(=O)N[C@@H](CC(=O)O)C(=O)N[C@@H](CCC(=O)O)C(=O)O (Ac-Asp-Glu-OH)	1.12
COc1c2occc2cc2ccc(=O)oc12	0.85
Cc1ccc(O)cc1	0.73
